B1: glmS ribozyme (parent)
chain: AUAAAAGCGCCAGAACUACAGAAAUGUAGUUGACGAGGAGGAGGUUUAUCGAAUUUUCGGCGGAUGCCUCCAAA

- Variants of: B1
- assay-name: self-cleavage kobs at 160 uM GlcN6P; higher = faster cleavage; RNA array
- settings: with glucosamine-6-phosphate
This sample holds only a part of the variants without activity.
# reported self-cleavage kobs at 160 uM GlcN6P; entries follow

Look up self-cleavage kobs at 160 uM GlcN6P for this variant: A33C C70G
< 1e-05 s⁻¹

Next:
Recorded self-cleavage kobs at 160 uM GlcN6P of A12U C70A , please.
0.000177 s⁻¹

Looking for the measured self-cleavage kobs at 160 uM GlcN6P of G40U G44A , can you help?
< 1e-05 s⁻¹
